Field: solubility. Provide a value for each of the compounds that follow.
# assay-overview: water solubility
# condition-summary: phosphate buffer, pH 7.4, aqueous buffer

{"compound": "CCCCCCCCCCCC(=O)NCC(=O)O", "solubility": "> 10000 µg/mL"}

Continue with the next compound.
Input line: Tell me the measured solubility of CCCCCCCCCCCC(=O)N1CC(O)C[C@H]1C(=O)O (stereo partly drawn) [Example 17, N-lauroyl-4-hydroxy-L-proline] , please.
Output line: > 10000 µg/mL

====

Field: solubility. Provide a value for each of the compounds that follow.
# assay-overview: solubility in organic solvents
# Assay type: physicochemical
# condition-summary: organic solvent or mixture; in ethanol; read-out: solubility in org. sol.

# example entries with known answers
{"compound": "CCCCCCCCCCCCCCCC(=O)NCCCC(=O)O [Example 11, N-palmitoyl-gamma-aminobutyric acid]", "solubility": "> 5000 µg/mL"}
{"compound": "CCCCCCCCCCCC(=O)NCC(=O)O [Example 8, N-lauroyl-glycine]", "solubility": "> 10000 µg/mL"}
{"compound": "O=C(CCCCCCCC(=O)NC(CO)C(=O)O)NC(CO)C(=O)O (stereo not drawn) [Example 12]", "solubility": "> 10000 µg/mL"}
{"compound": "CCCCCCCCCCCC(=O)NCC(=O)OC [Example 9, N-lauroyl-glycine methylester]", "solubility": "> 10000 µg/mL"}

Consider the following items and state reported solubility for each.
1. CCCCCCCCCCCC(=O)N[C@@H](CO)C(=O)O [Example 2, N-lauroyl-L-serine]
2. CCCCCCCCCCCCCCCC(=O)NCCC(=O)O [Example 10, N-palmitoyl-β-alanine]
3. CCCCCCCCCCCCCCCC(=O)N[C@@H](CO)C(=O)O [Example 1, N-palmitoyl-L-serine]

Output line:
1: > 10000 µg/mL; 2: > 5000 µg/mL; 3: > 10000 µg/mL

Consider the following items and state reported solubility for each.
1. CCCCCCCCCCCC(=O)N[C@@H](CO)C(=O)OC [Example 5, N-lauroyl-L-serine methylester]
2. CCCCCCCCCCCC(=O)N1CC(O)C[C@H]1C(=O)O (stereo partly drawn) [Example 17, N-lauroyl-4-hydroxy-L-proline]

Output line:
> 10000 µg/mL
> 10000 µg/mL

====

# assay-overview: solubility in organic solvents
# Assay type: physicochemical
# condition-summary: organic solvent or mixture; in DMSO; read-out: solubility in org. sol.
Field: solubility. Provide a value for each of the compounds that follow.

# example entries with known answers
{"compound": "CCCCCCCCCCCC(=O)NCC(=O)O", "solubility": "> 10 mg/mL"}
{"compound": "CCCCCCCC/C=C\\CCCCCCCC(=O)N[C@@H](CO)C(=O)O", "solubility": "> 10 mg/mL"}
{"compound": "CCCCCCCCCCCC(=O)NCC(=O)OC", "solubility": "> 10 mg/mL"}
{"compound": "CCCCCCCCCCCCCCCC(=O)NCCCC(=O)O", "solubility": "> 5 mg/mL"}
{"compound": "CCCCCCCCCCCCCCCC(=O)NCCC(=O)O", "solubility": "> 5 mg/mL"}
{"compound": "CCCCCCCCCCCCCCCC(=O)N[C@H]1C(O)O[C@H](CO)[C@@H](O)[C@@H]1O (stereo partly shown)", "solubility": "> 1 mg/mL"}

Input line: Tell me the measured solubility of O=C(O)CNC(=O)/C=C/CCCCCCCCC(=O)NCC(=O)O [Example 13, N,N'-trans-2-dodecendioyl-diglycine] , please.
Output line: > 10 mg/mL

Ref: patent EP0799188B1
